The measurements presented in this section are drawn from patent US20110086026A1.

- Tested On: T1, extracellular domain of hIL-13Rα1 cleaved from hIL-13Rα1:hFc chimeric protein (human, UniProt P78552 22-343)
- T1 construct: extracellular domain; also called Cleaved hIL-13Rα1 molecules (MW 40 kDa)
- T1 sequence (looked up): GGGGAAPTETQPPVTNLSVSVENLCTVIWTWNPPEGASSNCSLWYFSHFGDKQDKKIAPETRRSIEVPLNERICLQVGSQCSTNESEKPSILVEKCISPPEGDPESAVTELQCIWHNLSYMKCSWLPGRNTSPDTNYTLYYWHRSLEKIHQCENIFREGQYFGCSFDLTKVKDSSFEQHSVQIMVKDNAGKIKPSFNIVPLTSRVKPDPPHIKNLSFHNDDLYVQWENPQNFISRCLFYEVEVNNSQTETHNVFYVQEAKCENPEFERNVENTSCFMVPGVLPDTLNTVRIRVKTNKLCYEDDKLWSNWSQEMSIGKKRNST
- Protocol: SPR Biacore 3000, C1 chip, HuMab captured by anti-hFcγ, cleaved hIL-13Rα1 as analyte, 1:1 Langmuir model

| Binder | Units | koff |
| --- | --- | --- |
| HuMab LC5002-007 (antibody, human IgG1, V domains shown, Human IgG1 kappa from a HuMab mouse hybridoma; Only the variable domains are tied to this antibody; also called hu-MAB<h-IL-13R alpha>LC.5002-007 (DSM ACC2712)) VH: QVQLVQSGAEVKKPGSSVKVSCKVSGGTFSSYAFSWVRQAPGQGLEWMGRIIPILGRTNYAQKFQGRVTITADKSTSTAYMEVSSLRSEDTAVYYCAREGETLDYFYYGMDVWGQGTTVTVSS VL: EIVLTQSPGTLSLSPGERATLSCRASQSVSSSYLAWYQQKPGQAPRLLIYGASSRAIGIPDRFSGSGSGTDFTLTISRLEPEDFAVYYCQHYGSSLTFGGGTKVEIK | s⁻¹ | 0.00083 |
| HuMab LC5002-005 (antibody, V domains shown, Only the variable domains are tied to this antibody; also called hu-MAB<h-IL-13Ralpha>LC.5002-005 (DSM ACC2711)) VH: EVQVLDSGGGLVQPGGSLRLSCTASGFTFRLYTMSWVRQTPGRGLEWVSGISGSGLSTYFADSVKGRFTISRDNSKNTVYLQMNSLRAEDTAVYYCAKEGDWIYFDSWGQGTLVIVSS VL: DIQMTQSPSSLSASVGDRVTITCRASQGISSWLAWYQQKPEKAPKSLIYAASSLQSGVPSRFSGSGSGTDFTLTISSLQPEDFATYYCQQYNSHPPTFGQGTKLEIK | s⁻¹ | 0.0003 |
| HuMab LC5002-003 (antibody, V domains shown, Human IgG1 kappa from a HuMab mouse hybridoma; Only the variable domains are tied to this antibody; also called LC50002-003; hu-MAB<h-IL-13Ralpha>LC.5002-003 (DSM ACC2710)) VH: EVQLLESGGDLIQPGGSLRLSCAASGFTFNIYAMNWVRQAPGKGLEWVSVISGRGITTYYADSVKGRFTISRDNSKNTLYLQMDSLRAEDTAVYYCAKGSSYWTDFDYWGQGTLVTVSS VL: DIQMTQSPSSLSASVGDRVTITCRASQGISSWLAWYQQKPEKAPKSLIYAASSLQSGVPSRFSGSGSGTDFTLTISSLQPEDFATYYCQQYNSYPWTFGQGTKVEIK | s⁻¹ | 0.00051 |
| LC5002-005, mutant L234A; L235A (antibody, V domains shown, Recombinant IgG1 variant; also called IgG1 ala-ala LC5002-005; recombinant variant IgG1-Ala-Ala) VH: EVQVLDSGGGLVQPGGSLRLSCTASGFTFRLYTMSWVRQTPGRGLEWVSGISGSGLSTYFADSVKGRFTISRDNSKNTVYLQMNSLRAEDTAVYYCAKEGDWIYFDSWGQGTLVIVSS VL: DIQMTQSPSSLSASVGDRVTITCRASQGISSWLAWYQQKPEKAPKSLIYAASSLQSGVPSRFSGSGSGTDFTLTISSLQPEDFATYYCQQYNSHPPTFGQGTKLEIKR | s⁻¹ | 0.00029 |
| HuMab LC5002-002 (antibody, human IgG1, V domains shown, Human IgG1 kappa from a HuMab mouse hybridoma; Only the variable domains are tied to this antibody; also called hu-MAB<h-IL-13R alpha>LC.5002-002 (DSM ACC2709)) VH: EVQLLESGGGLVQPGGSLRLSCAASGFTFNIYAMNWVRQAPGKGLEWVSVISGRGITTYYADSVKGRFTISRDNSKNTLYLQMNSLRADDTAVYYCAKGSSSWTDFDYWGQGTLVTVSS VL: DIQMTQSPSSLSASVGDRVTITCRASQGISRWVAWYQQKPEKAPKSLIYAASSLQSGVPSRFSGSGSGTDFTLTISSLQPEDFATYYCQQYNSYPWTFGQGTKVEIK | s⁻¹ | 0.00065 |
